Just for reference, paper PMC8612984 is where these values come from.

# testTarget: T1, C1r-CCP2-SP, recombinant autoactivated domain truncation of human C1r (human, UniProt P00736 375-703)
# T1 sequence: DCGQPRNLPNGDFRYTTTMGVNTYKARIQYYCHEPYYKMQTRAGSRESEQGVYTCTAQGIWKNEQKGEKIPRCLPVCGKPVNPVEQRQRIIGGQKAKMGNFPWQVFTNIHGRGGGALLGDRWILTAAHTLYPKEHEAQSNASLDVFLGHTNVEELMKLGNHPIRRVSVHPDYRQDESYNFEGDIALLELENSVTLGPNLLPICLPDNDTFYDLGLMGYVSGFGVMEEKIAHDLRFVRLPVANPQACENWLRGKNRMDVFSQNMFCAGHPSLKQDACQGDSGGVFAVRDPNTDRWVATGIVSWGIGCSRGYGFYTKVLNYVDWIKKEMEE
# experimentalProtocol: SPR

binder	Kd / nM
BBK32-C R337A (residues 206–354) (domain or fragment, B. burgdorferi B31, UniProt O50835 206-354, looked up) SNRYQSYLEGVKYNVDSAIQTITKIYNTYTLFSTKLTQMYSTRLDNFAKAKAKEEAAKFTKEDLEKNFKTLLNYIQVSVKTAANFVYINDTHAKRKLENIEAEIKTLIAKIKEQSNLYEAYKAIVTSILLMADSLKEVQGIIDKNGVWY	0.78
BBK32-C T242A (domain or fragment, B. burgdorferi B31, UniProt O50835 206-348, looked up) SNRYQSYLEGVKYNVDSAIQTITKIYNTYTLFSTKLAQMYSTRLDNFAKAKAKEEAAKFTKEDLEKNFKTLLNYIQVSVKTAANFVYINDTHAKRKLENIEAEIKTLIAKIKEQSNLYEAYKAIVTSILLMRDSLKEVQGIID	0.96
BBK32-C T242A-Y245A (domain or fragment, B. burgdorferi B31, UniProt O50835 206-348, looked up) SNRYQSYLEGVKYNVDSAIQTITKIYNTYTLFSTKLAQMASTRLDNFAKAKAKEEAAKFTKEDLEKNFKTLLNYIQVSVKTAANFVYINDTHAKRKLENIEAEIKTLIAKIKEQSNLYEAYKAIVTSILLMRDSLKEVQGIID	57
BBK32-C Y245A (domain or fragment, B. burgdorferi B31, UniProt O50835 206-348, looked up) SNRYQSYLEGVKYNVDSAIQTITKIYNTYTLFSTKLTQMASTRLDNFAKAKAKEEAAKFTKEDLEKNFKTLLNYIQVSVKTAANFVYINDTHAKRKLENIEAEIKTLIAKIKEQSNLYEAYKAIVTSILLMRDSLKEVQGIID	1.3
